Assay notes: MELAS cybrid and Rieske KO viability enhancers – cell-based, MELAS cybrids, Rieske KO mouse fibroblasts, CellTiter-Glo, primary screen (AID 1508586); note: test concentration not given here
Test parameters: Rieske KO mouse fibroblast survival, low glucose, CellTiter-Glo 72 h
Entry flag: condition met if z-score reaches 0.02; condition not met if it does not.

Example entries begin here.
Inquiry: Determine whether measured z-score meets or exceeds 0.02 for CC1C[C@H]2[C@@H]3CCC4=CC(=O)C=C[C@]4(C)[C@@H]3C(=O)C[C@]2(C)[C@]1(O)C(=O)CO (stereo not given in full)
Reply text: condition met

Inquiry: Determine whether measured z-score meets or exceeds 0.02 for "CN/C(=C/[N+](=O)[O-])NCCSCc1csc(CN(C)C)n1"
Reply text: condition not met

Inquiry: Determine whether measured z-score meets or exceeds 0.02 for "O=C(NCCn1ccnc1)c1cc(NCC2CC2)cc(S(=O)(=O)N2CCCC2)c1"
Reply text: condition met

Inquiry: Determine whether measured z-score meets or exceeds 0.02 for CCN1CCN(C(=O)NC(C(=O)NC2C(=O)N3C(C(=O)O)=C(CSc4nnnn4C)CS[C@H]23)c2ccc(O)cc2)C(=O)C1=O (stereo not given in full)
Reply text: condition not met

Continuing:
Inquiry: Determine whether measured z-score meets or exceeds 0.02 for O=C1c2c(O)cccc2[C@H]([C@@H]2OC(CO)C(O)C(O)C2O)c2cc(CO)cc(O)c21 (stereo not given in full)
Reply text: condition not met
